Target: Fatty acid synthase (Homo sapiens, UniProt P49327)
Sequence (P49327 whole entry, the tested form may be a part): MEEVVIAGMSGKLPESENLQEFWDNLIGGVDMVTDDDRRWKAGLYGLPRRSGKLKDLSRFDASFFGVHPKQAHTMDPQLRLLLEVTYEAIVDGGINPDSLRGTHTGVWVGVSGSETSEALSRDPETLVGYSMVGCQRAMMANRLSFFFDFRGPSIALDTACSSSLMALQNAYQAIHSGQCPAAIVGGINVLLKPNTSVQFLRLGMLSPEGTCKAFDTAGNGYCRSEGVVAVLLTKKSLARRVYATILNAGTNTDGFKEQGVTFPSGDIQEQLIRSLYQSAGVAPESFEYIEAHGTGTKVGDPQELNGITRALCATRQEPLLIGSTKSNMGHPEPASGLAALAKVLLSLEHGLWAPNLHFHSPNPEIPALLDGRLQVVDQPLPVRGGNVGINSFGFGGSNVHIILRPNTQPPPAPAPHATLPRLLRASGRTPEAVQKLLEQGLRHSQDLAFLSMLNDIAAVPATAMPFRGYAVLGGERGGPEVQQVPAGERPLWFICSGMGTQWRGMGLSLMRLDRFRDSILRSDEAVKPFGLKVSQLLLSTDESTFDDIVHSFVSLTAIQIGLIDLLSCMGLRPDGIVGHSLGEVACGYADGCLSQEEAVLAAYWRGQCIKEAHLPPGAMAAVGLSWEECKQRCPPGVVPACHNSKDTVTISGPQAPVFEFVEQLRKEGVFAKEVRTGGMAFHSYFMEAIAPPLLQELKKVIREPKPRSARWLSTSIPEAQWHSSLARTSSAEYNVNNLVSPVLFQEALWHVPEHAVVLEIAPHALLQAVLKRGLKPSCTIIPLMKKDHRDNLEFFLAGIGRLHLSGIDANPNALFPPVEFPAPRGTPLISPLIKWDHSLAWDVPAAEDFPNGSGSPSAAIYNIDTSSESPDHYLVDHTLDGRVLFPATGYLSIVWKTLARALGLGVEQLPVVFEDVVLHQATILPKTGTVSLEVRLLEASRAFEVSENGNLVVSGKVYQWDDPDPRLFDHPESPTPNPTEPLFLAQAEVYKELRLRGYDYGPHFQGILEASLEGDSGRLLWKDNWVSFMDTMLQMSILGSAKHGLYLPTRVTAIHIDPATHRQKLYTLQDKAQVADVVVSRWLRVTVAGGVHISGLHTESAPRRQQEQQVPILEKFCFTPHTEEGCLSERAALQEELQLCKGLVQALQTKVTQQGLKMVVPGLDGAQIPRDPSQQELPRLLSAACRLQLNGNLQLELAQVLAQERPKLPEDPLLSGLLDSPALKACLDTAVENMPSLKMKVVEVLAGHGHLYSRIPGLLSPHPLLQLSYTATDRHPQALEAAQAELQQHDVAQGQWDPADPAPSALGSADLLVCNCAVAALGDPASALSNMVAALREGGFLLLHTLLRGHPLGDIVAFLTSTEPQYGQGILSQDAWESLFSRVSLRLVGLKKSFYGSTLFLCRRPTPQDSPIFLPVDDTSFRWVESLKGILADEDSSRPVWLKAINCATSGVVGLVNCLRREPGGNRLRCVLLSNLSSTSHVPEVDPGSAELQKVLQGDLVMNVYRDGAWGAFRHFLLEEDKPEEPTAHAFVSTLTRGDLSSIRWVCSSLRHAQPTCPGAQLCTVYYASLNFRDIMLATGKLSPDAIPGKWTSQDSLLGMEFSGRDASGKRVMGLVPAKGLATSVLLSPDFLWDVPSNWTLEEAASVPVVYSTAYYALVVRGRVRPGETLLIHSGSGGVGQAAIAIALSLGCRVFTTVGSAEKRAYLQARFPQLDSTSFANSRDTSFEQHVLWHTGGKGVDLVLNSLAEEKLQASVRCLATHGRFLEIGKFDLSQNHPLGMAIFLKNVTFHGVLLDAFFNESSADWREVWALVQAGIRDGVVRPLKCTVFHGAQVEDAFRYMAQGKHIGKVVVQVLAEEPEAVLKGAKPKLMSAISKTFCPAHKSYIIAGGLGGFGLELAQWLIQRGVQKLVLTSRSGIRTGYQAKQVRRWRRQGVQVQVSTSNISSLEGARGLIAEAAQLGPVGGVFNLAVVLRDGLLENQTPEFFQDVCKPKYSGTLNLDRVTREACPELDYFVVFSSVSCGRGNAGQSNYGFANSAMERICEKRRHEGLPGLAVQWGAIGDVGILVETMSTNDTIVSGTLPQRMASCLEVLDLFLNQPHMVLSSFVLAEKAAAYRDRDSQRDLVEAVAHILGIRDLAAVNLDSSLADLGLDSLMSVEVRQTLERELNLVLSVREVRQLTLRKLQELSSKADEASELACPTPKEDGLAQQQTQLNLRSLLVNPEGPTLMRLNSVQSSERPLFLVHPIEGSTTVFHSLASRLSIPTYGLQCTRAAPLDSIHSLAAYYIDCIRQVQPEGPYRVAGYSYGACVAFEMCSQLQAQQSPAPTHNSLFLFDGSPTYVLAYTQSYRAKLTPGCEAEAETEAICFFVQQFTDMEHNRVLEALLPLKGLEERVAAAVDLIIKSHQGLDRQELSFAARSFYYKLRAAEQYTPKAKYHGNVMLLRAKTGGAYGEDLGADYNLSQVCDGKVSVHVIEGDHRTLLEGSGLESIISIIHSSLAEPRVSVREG
Assay: FAS thioesterase domain inhibitors, dose response, biochemical, kinetic fluorescence intensity (AID 624326);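 further: rate of fluorescence rise from hydrolysis of a fluorogenic O-methyl fluorescein ester substrate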
Type: functional
The source made the active and inactive calls.
property_measured: IC50

Some molecules with recorded IC50:
>>> print(df.to_string())
                                   molecule  experimental_value
0  O=C(NCc1ccc2c(c1)OCO2)c1cc([N+](=O)[O-])ccc1N1CCCCC1    5.03 µM (active)
1  O=C(Cc1ccc(S(=O)(=O)N2CCOCC2)s1)N1CCN(S(=O)(=O)c2ccccc2[N+](=O)[O-])CC1    3.36 µM (active)
2  Fc1c(F)c(F)c(N/N=C/c2c[nH]c3ccccc23)c(F)c1F    12.4 µM (active)
3  COc1cc2ncc(S(=O)(=O)c3ccccc3)c(N3CCCC(C)C3)c2cc1OC (stereo not drawn)    3.13 µM (active)

Hi, could you look up IC50 for each item in my list?
1. CCOc1ccc(NC(=O)CN(c2ccc([N+](=O)[O-])cc2)S(=O)(=O)c2ccccc2)cc1
2. Cc1ccccc1/N=C1\C(Cl)=C(O)OC1OC(=O)c1ccco1 (stereo not drawn)
3. CC(NC(=O)COC(=O)c1cc(NS(=O)(=O)c2ccc(Cl)c([N+](=O)[O-])c2)ccc1O)C1CC2CCC1C2 (stereo not drawn)
4. N#Cc1cc2ccc(N3CCOCC3)cc2cc1C#N
5. CCn1c(SCC(=O)Nc2ncc(C(F)(F)F)cc2Cl)nnc1-c1cccc(C)c1
6. CCN1C(=O)[C@H]2[C@@H](c3ccc(C)cc3)N3C(=O)N(c4cccc(Cl)c4)C(=O)[C@@]3(Cc3ccc(Cl)cc3)[C@H]2C1=O

1: 7.65 µM (active); 2: 4.35 µM (active); 3: 11.7 µM (active); 4: 4.31 µM (active); 5: 3.94 µM (active); 6: 16.1 µM (active)

Hey, can you go through the list below and give me IC50 for every item?
1. COc1ccc([N+](=O)[O-])cc1NC(=O)c1ccc(N(Cc2ccccc2C)S(C)(=O)=O)cc1
2. O=C1S/C(=C\c2ccc(O)c([N+](=O)[O-])c2)C(=O)N1Cc1cccc([N+](=O)[O-])c1
3. CCN(CC)C(=O)C1=C(C)N(Cc2ccc(F)cc2)C(=O)C(CC(=O)NC(c2ccccc2)c2ccccc2)C1 (stereo not drawn)

1: 6.91 µM (active); 2: 3.73 µM (active); 3: 7.98 µM (active)

----------
Biological target: RNA-binding protein pos-1 (Caenorhabditis elegans, UniProt G5EF15)
Sequence (G5EF15 whole entry): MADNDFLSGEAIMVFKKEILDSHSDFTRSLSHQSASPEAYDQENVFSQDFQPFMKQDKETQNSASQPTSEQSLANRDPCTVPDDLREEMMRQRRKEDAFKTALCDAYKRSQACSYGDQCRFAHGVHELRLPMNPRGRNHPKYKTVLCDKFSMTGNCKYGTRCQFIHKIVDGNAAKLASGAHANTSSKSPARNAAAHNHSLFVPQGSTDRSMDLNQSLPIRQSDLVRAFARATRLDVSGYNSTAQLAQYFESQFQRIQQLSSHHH
Test: inhibitors of POS-1/mex-3 RNA binding, dose response, biochemical, fluorescence polarization (AID 1964);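 further: purified POS-1 fused to maltose binding protein made in E. coli; potency of compounds blocking POS-1 binding to fluorescent RNA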
Activity calls are given as the source filed them.
Answer each item with its documented EC50.

                                   compound     experimental_value
0  Cc1c(NC(=O)c2coc(=O)c(Br)c2)c(=O)n(-c2ccccc2)n1C       8.99 µM (active)
1  O=C(O)C(=O)/C(=C\c1cccc2ccccc12)c1ccc2ccccc2n1        164 µM (active)
2  O=C(O)C1Nc2ccc(Br)cc2C2C=CCC12 (centres undefined)       9.81 µM (active)
3  Cc1cc2c3c(c1C)C1(C(=O)N3C(C)(C)CC2C)C(C#N)=C(N)OC2=C1C(=O)CC(C)(C)C2 (centres undefined)  > 300 µM (not active)
4  COC(=O)C1=C(C)N=C2SC(C#N)=C(N)N2C1c1cccc(OC)c1 (centres undefined)  > 300 µM (not active)

// for each compound below, give its EC50
1. N#CC(C#N)=Cc1ccc(-c2ccccc2)o1
2. CCC(C)N1C(=O)/C(=C\NNc2nc3c(c(=O)n(C)c(=O)n3C)n2C)C(=O)NC1=S (centres undefined)
3. Cn1c(N=Nc2ccc(N3CCOCC3)cc2)[n+](C)c2ccccc21
4. CCCSc1nnc2nc3c(nn12)c1ccccc1n3C
5. O=C(CSCc1c(Cl)cccc1Cl)NCC1CCCO1 (centres undefined)

6.78 µM (inconclusive)
> 300 µM (not active)
> 300 µM (not active)
> 300 µM (not active)
> 300 µM (not active)

State the recorded EC50 for every item in the following list.
1. CCCCC1=CC2=CC(=O)C(C)(OC(=O)CCc3ccccc3)C(=O)C2=CO1 (centres undefined)
2. CN1C(=O)/C(=C\c2ccc(N3CCCCC3)o2)C(=O)NC1=S
3. CC(C)/C=C1\CC/C(=C\c2ccc(N(C)C)cc2)C1=O
4. Cn1c(C(=O)NCCCN2CCOCC2)cc2c(=O)n(C)c3ccccc3c21

1: 41.6 µM (active); 2: > 300 µM (not active); 3: > 300 µM (not active); 4: > 300 µM (not active)
